assay.overview: In vivo PK experiments in beagle dogs, oral gavage
condition.context: dog, blood; beagle dogs, P.O. 300 mg/kg, single oral gavage; read-out: MRT0-last
Protocol: The samples were detected by LC-MS/MS, and AUC, Cmax, and Tmax parameters were calculated by employing WinNonlin version 6.4.
measured.attribute: MRT last (h)
Numbers only; they are read as h.

Given the entry CC/C(=C(/c1ccc(/C=C/C(=O)O)cc1)c1[nH]c2ccccc2c1Cl)c1ccc(F)cc1Cl , report its measured MRT last.
10.6

---

assay.overview: In vivo PK experiments in beagle dogs, oral gavage
condition.context: dog, blood; beagle dogs, P.O. 300 mg/kg, single oral gavage
measured.attribute: Cmax (µM)
Numbers only; they are read as µM.

Given the entry CC/C(=C(/c1ccc(/C=C/C(=O)O)cc1)c1[nH]c2ccccc2c1Cl)c1ccc(F)cc1Cl , report its measured Cmax.
43.5
